# experimental.target: T1, human DR3 (full length, on cells) (human, UniProt Q93038 25-417)
# T1 sequence: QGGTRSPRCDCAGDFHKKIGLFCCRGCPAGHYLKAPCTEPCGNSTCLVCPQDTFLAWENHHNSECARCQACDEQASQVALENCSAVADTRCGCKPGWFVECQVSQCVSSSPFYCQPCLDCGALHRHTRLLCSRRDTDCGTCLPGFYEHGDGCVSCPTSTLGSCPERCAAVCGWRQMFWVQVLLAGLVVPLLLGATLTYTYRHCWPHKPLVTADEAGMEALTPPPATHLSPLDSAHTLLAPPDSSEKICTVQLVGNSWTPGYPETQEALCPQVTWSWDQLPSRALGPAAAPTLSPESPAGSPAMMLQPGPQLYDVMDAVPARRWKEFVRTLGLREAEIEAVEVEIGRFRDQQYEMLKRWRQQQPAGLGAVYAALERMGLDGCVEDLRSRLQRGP
# assay.text: cell-based or functional assay
IC50, TNFalpha inhibition, TL1A-activated CD4+ T cells, donor 1 strictly less than 0.2 nM = 1.0. Otherwise 0.0.

>>> label("0143 (chimeric Fab of 44F434, human IgG4 constant domain, hinge Cys->Ser) (Fab, V domains shown, IgG4-Ser, chimeric) VH: EVQLVESGGDLVMPGGSLKLSCAASGFIFSSYGLSWIRQTPDKRLEWVATISGGDSYTYYPDSVKGRFTISSDNAKNTLYLQMTSLKSEDTAMYYCATQREIYYGTYYALDHWGQGTSVTVSS VL: DIQMTQTTSSLSASLGDRVTISCRASQDINNYLNWYQQKPDGTVKLLIYYTSRLQSGVPSRFSGSGSGTDYSLTISSLEQDDIATYFCQQGSPLPWTFGGGTKLEIKR")
1.0
>>> label("0152 (chimeric Fab of 50F191, human IgG4 constant domain, hinge Cys->Ser) (Fab, V domains shown, IgG4-Ser, chimeric) VH: EVQLVESGGGLVEPGGSLKLSCAASGFTFSTYAMSWVRQSPEKRLEWVAEISSGDSYTYYPDIVTGRFTISRDDAKNTLFLEMSSLRSEDTAIYYCVRDQDYRYDGYYAMDHWGQGTSVTVSS VL: DIVLTQSPASLAVSLGQRATISCRASESVEHYGTSLMQWYQQKPGQPPKLLIYAASNVESGVPARFSGRGSGPDFSLNIHPVEEDDIAMYFCQQSRRIPWTFGGGTKLEIKR")
1.0
>>> label("0123 (chimeric Fab of 27F44, human IgG4 constant domain, hinge Cys->Ser) (Fab, V domains shown, murine variable domains, human IgG4 constant domain (IgG4-Ser)) VH: EVKLVESGGGLVKPGGSLKLSCSASGFAFSNYDMSWVRQTPEKRLEWVAAFSSDGYTFYPDSLKGRFTISRDNARNTLYLQMSSLGSEDTALYCCARHADYANYPVMDYWGQGTSVTVSS VL: DIVLAQSPASLLVSLGQRATISCRASKSVSTSGYSYMHWYQQKPGQPPKLLIYLASNLESGVPARFSGSGSGTDFTLNIHPVEEEDAATYYCQHSRELPLTFGAGTMLELKR")
0.0
>>> label("0130 (recombinant murine Fab of 45F36) (Fab, V domains shown, murine Fab; also called 00130) VH: EVQLVESGGGLVKPGGSLKLSCAASGFTFSSYAMSWVRQSPDKRLEWVAEISSGDTYTYYPDTVTGRFTISRDNAKKTLYLEMSGLRSEDTAMYYCARDREAYYGQQYVMDYWGQGTSVTVSS VL: DIVLTQSPASLAVSLGLSVTISCRASESIEYSGTSFLQWYQQKPGQPPRLLIYGSSTVESGVPARFSGSGSGTDFSLNIHPVEEDDSAMYFCQQSRRLPWTFGGGTKLEIKR")
0.0
>>> label("0228 (humanized Fab of 27F44, IgG4, hz0072VH S49A / hz0072VL) (Fab, V domains shown, IgG4-Cys, hz (humanized IgG4 Fab with the hinge cysteine kept)) VH: EVQLVESGGGLVQPGGSLRLSCAASGFTFSNYDMSWVRQATGKGLEWVAAFSSDGYTFYPGSVKGRFTISRENAKNSLYLQMNSLRAGDTAVYYCARHADYANYPVMDYWGQGTLVTVSS VL: DIQMTQSPSSLSASVGDRVTITCRASKSVSTSGYSYMHWYQQKPGKAPKLLIYLASNLESGVPSRFSGSGSGTDFTLTISSLQPEDFATYYCQHSRELPLTFGGGTKVEIKR")
0.0
>>> label("0124 (chimeric Fab of 28F26, human IgG4 constant domain, hinge Cys->Ser) (Fab, V domains shown, murine variable domains, human IgG4 constant domain (IgG4-Ser)) VH: EVKVVESGGGLVKPGGSLKLSCAASGFVFSSYDMSWVRQIPEKRLEWVAAISSGDYYTYYPDSVKGRFTISRDDARNTLYLQMSSLRSEDTALYYCARHRGGNYPQYAMDYWGQGTSVTVSS VL: DILLTQSPASFAVSLGQRATISCRASKSVSTSGYNYIHWYQQKPGQPPKLLIYLTSNLESGVPARFSGSGSGTDFTLNIHPVEEEDAATYYCQHSRELPFTFGSGTKLEIKR")
0.0
